Tested on: RPMI-8226
protocol.description: NCI tumour cell line growth inhibition, 48 h
Active and inactive are the calls of the source. Cut-off read from the data, not from the text of the source: active = GI50 up to about 1.1 µM and inactive = higher.
Outcome codes: active, inactive

> print(dat)
                                    compound  label.class
 1  CC(C)(CCCCC(C)(C)NCC1COc2ccccc2O1)NCC1COc2ccccc2O1 (stereo not given)     inactive
 2  CCOC(=O)CNC1=Nc2ccccc2C(=O)N2CSCC12 (stereo not given)     inactive
 3  O=C1CCCC1C(O)(C(F)(F)F)C(F)(F)F (stereo not given)     inactive
 4  COc1cc(C(c2ccccc2)N2C(=O)CC[C@H]2C(=O)O)cc(OC)c1OC (stereo not given in full)     inactive
 5  CCOC(=O)[C@H](C)OC(=O)[C@@](C)(NC(=O)c1ccccc1C(=O)OC)[C@@H]1NC=C(C(=O)OC)CS1     inactive
 6  CCCCCCc1cc(C=O)sc1-c1ccc(-c2sc(-c3ccc(-c4ccc(-c5cc(CCCCCC)c(-c6ccc(-c7sc(C=O)cc7CCCCCC)s6)s5)s4)s3)cc2CCCCCC)s1     inactive
 7  O=C1c2ccccc2-c2nc(-c3cccnc3)cc3c2c1nc1ccccc13     inactive
 8  Cc1ccc2c(O)c3c(cc2c1)C(=O)c1c2c(cc(O)c1C3=O)C1(C)OC(O2)C(O)C(N(C)C)C1O (stereo not given)       active
 9  CN(C)CCn1c(=O)c2ccc(NCCNCCO)c3c(=O)c4cc(O)ccc4n(c1=O)c23     inactive
10  COc1ccc([N+](=O)[O-])c2c(NCC(O)CO)ccnc12 (stereo not given)     inactive
11  CN1CCN(c2ccc3[nH]c(-c4ccc5[nH]c(-c6ccc(N(C)CCCl)cc6)nc5c4)nc3c2)CC1     inactive
12   CSc1c(C#N)c(=O)n(N)c2c1c(C)nn2-c1ccccc1     inactive
13  CNC1C(O)C(NC)C2OC3(O)C(=O)CC(C)OC3OC2C1O (stereo not given)     inactive
14              CCOC(=O)/C=C(\C)c1ccc(Cl)cc1     inactive
15  COC(=O)C(C)(C)OCc1ccc(C2NC(=O)N(c3cccc(Cl)c3)C(=O)N2c2cccc(Cl)c2)cc1 (stereo not given)     inactive
